Measured melting point by item

>  <compound>
CC1CC(=O)c2c(C(=O)Nc3ccccc3F)c[nH]c2C1 (stereo not drawn)

>  <melting point>
264 to 265 °C

$$$$
>  <compound>
CCOc1ccc(NC(=O)c2c[nH]c3c2C(=O)CC(C)C3)c(F)c1 (stereo not drawn)

>  <melting point>
224 to 225 °C

$$$$
>  <compound>
CC1CC(=O)c2c(C(=O)Nc3ccc4ccccc4n3)c[nH]c2C1 (stereo not drawn)

>  <melting point>
273 to 275 °C

$$$$
>  <compound>
COc1ccc(NC(=O)c2c[nH]c3c2C(=O)CC(C)C3)cc1 (stereo not drawn)

>  <melting point>
260 to 261 °C

$$$$
>  <compound>
CC1CC(=O)c2c(C(=O)Nc3cccnc3)c[nH]c2C1 (stereo not drawn)

>  <melting point>
225 to 227 °C

$$$$
>  <compound>
COc1ccc(NC(=O)c2c[nH]c3c2C(=O)CC(C)C3)c(F)c1 (stereo not drawn)

>  <melting point>
217 to 219 °C

$$$$
>  <compound>
CC1(C)CC(=O)c2c(C(=O)Nc3ccc(O)cc3F)c[nH]c2C1

>  <melting point>
225 to 227 °C

$$$$
>  <compound>
CC1(C)CC(=O)c2c(C(=O)Nc3ccc4cccnc4n3)c[nH]c2C1

>  <melting point>
389 to 390 °C

$$$$
>  <compound>
CC1CC(=O)c2c(C(=O)Nc3cccc(F)c3)c[nH]c2C1 (stereo not drawn) [Example 3(s)]

>  <melting point>
302 to 303 °C

$$$$

###

Measured pKi by item
subjectOfTest: GABAa receptor (benzodiazepine receptor)
assayName: GABAa receptor binding assay (3H-RO15-1788 [3H-Flumazenil] displacement, rat cortical tissue homogenate)
settings: radioligand 0.5 nM 3H-RO15-1788 (3H-Flumazenil), 30 min at 4° C.
pKi: −log10 of the molar value.
metricName: pKi

>  <compound>
COc1ccc(NC(=O)c2c[nH]c3c2C(=O)CC(C)(C)C3)cc1

>  <endpointResult>
7.89

$$$$
>  <compound>
CC1(C)CC(=O)c2c(C(=O)Nc3ccccc3F)c[nH]c2C1

>  <endpointResult>
7.92

$$$$
>  <compound>
CC1CC(=O)c2c(C(=O)Nc3ccccc3)c[nH]c2C1 (stereo not shown)

>  <endpointResult>
9.00

$$$$
>  <compound>
CC1CC(=O)c2c(C(=O)Nc3ccc4ccccc4n3)c[nH]c2C1 (stereo not shown)

>  <endpointResult>
7.92

$$$$
>  <compound>
CC1CC(=O)c2c(C(=O)Nc3ccc4cccnc4n3)c[nH]c2C1 (stereo not shown)

>  <endpointResult>
8.40

$$$$
>  <compound>
CC1(C)CC(=O)c2c(C(=O)Nc3ccc4cccnc4n3)c[nH]c2C1

>  <endpointResult>
7.10

$$$$
>  <compound>
CC1(C)CC(=O)c2c(C(=O)Nc3ccsc3)c[nH]c2C1

>  <endpointResult>
8.00

$$$$
>  <compound>
COc1ccc(NC(=O)c2c[nH]c3c2C(=O)CC(C)C3)c(F)c1 (stereo not shown)

>  <endpointResult>
9.00

$$$$
>  <compound>
CC1CC(=O)c2c(C(=O)Nc3ccccc3F)c[nH]c2C1 (stereo not shown)

>  <endpointResult>
9.30

$$$$
>  <compound>
CC1(C)CC(=O)c2c(C(=O)Nc3ccccc3)c[nH]c2C1

>  <endpointResult>
7.68

$$$$

###

Measured melting point by item

>  <compound>
Cc1ccc(NC(=O)c2c[nH]c3c2C(=O)CC(C)C3)c(O)c1 (centres unmarked)

>  <melting point>
258 to 260 °C

$$$$
>  <compound>
CC1(C)CC(=O)c2c(C(=O)Nc3ccc(F)cc3)c[nH]c2C1

>  <melting point>
268 to 270 °C

$$$$
>  <compound>
COc1ccncc1NC(=O)c1c[nH]c2c1C(=O)CC(C)(C)C2

>  <melting point>
217 to 218 °C

$$$$
>  <compound>
COc1ccc(NC(=O)c2c[nH]c3c2C(=O)CC(C)C3)c(O)c1 (centres unmarked)

>  <melting point>
236 to 238 °C

$$$$
>  <compound>
CC1(C)CC(=O)c2c(C(=O)Nc3cccnc3)c[nH]c2C1

>  <melting point>
237 to 239 °C

$$$$

###

Measured melting point by item
metricName: melting point

>  <compound>
COc1cccc(NC(=O)c2c[nH]c3c2C(=O)CC(C)C3)c1 (centres unmarked)

>  <endpointResult>
234 to 235 °C

$$$$
>  <compound>
CC1CC(=O)c2c(C(=O)Nc3ccccc3)c[nH]c2C1 (centres unmarked)

>  <endpointResult>
278 to 279 °C

$$$$
>  <compound>
CC1CC(=O)c2c(C(=O)Nc3ccc(O)c(O)c3)c[nH]c2C1 (centres unmarked)

>  <endpointResult>
267 to 269 °C

$$$$
>  <compound>
CC1CC(=O)c2c(C(=O)Nc3ccc(O)cc3)c[nH]c2C1 (centres unmarked)

>  <endpointResult>
320 °C

$$$$
>  <compound>
COc1ccc(NC(=O)c2c[nH]c3c2C(=O)CC(C)(C)C3)c(F)c1

>  <endpointResult>
213 to 215 °C

$$$$
